Recorded values, source patent US6906033.

Target: human plasma kallikrein (human, UniProt P03952 20-638)
Sequence (P03952 20-638): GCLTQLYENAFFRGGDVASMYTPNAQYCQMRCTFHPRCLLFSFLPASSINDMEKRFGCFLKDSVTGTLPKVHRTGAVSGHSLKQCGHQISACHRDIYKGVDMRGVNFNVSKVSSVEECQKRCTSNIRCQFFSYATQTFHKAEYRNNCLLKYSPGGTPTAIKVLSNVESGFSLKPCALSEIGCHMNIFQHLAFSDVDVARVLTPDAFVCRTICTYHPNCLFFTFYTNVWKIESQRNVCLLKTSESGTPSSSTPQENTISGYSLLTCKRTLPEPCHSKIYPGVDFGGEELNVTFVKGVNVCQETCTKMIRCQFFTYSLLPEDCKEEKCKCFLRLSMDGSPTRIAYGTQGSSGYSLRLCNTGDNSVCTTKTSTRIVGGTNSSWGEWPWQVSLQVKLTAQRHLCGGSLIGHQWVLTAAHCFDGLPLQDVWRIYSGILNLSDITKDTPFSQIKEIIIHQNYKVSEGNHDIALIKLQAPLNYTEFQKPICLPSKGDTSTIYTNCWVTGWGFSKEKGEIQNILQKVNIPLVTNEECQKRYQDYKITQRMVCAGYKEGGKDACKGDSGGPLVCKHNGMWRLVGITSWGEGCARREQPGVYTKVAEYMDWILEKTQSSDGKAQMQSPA
Assay: enzyme inhibition
pKi: −log10 of the molar value.
Decision: pKi compared against 7; not below it gives 1, below it gives 0.

Quick check: does DD102 (protein) EVVREVCSEQAETGPCRAMIPRWYFDVTEGKCAPFFYGGCGGNRNNFDTEEYCMAVCGSAI have pKi greater than or equal to 7?
1

Further cases:
Quick check: does TW6168 (protein) EVVREVCSEQAETGPCRAMILRWYFDVTEGKCAPFFYGGCGGNRNNFDTEEYCMAVCGSAI have pKi greater than or equal to 7?
1

Quick check: does TW6210 (protein) EVVREVCSEQAETGPCRAMIQRWYFDVTEGKCAPFFYGGCGGNRNNFDTEEYCMAVCGSAI have pKi greater than or equal to 7?
1

Quick check: does TW6172 (protein) EVVREVCSEQAETGPCRAMASRWYFDVTEGKCAPFFYGGCGGNRNNFDTEEYCMAVCGSAI have pKi greater than or equal to 7?
0
